# methodSummary: Affinity against Sigma opioid receptor type 1 using [3H](+)-pentazocine in guinea pig brain membranes
pKi: −log10 of the molar value.
readout: pKi

* C[C@@H]1[C@@H]2Cc3ccc(O)cc3[C@@]1(C)CCN2Cc1ccccc1 | 9.17
